Tested on: OVCAR-8 ovarian
Experiment: NCI-60 one-dose screen, 48 h (100 = growth as untreated, 0 = no growth, -100 = all killed)
Details: 10 µM unless noted
The panel holds about 83,000 compounds, 20% with a hit somewhere; the sample as a whole holds those more often.
measured.property: growth (%)
Numbers only, in %.

COc1ccccc1/C=C1\Oc2cc(OCCCN3CCCC3)ccc2C1=O: 93.7
O=C(Nc1ccc2ncnc(Nc3ccc(Oc4cccc(F)c4)c(Cl)c3)c2c1)c1ccc(CNCCO)cc1: 31.5

With those in mind, consider the next compound.
### Prompt Requested field: growth. Item: "Cc1ccc2nc3c(cc2c1)CSc1nnc(-c2ccc[nH]c2=S)n1N3"
### Response 100
